pIC50 values by entry
# target system: PI3Kα H1047R in T47D cells (Homo sapiens, UniProt P42336, H1047R)
# Construct: endogenous in cells
# Sequence (P42336 whole entry H1047R): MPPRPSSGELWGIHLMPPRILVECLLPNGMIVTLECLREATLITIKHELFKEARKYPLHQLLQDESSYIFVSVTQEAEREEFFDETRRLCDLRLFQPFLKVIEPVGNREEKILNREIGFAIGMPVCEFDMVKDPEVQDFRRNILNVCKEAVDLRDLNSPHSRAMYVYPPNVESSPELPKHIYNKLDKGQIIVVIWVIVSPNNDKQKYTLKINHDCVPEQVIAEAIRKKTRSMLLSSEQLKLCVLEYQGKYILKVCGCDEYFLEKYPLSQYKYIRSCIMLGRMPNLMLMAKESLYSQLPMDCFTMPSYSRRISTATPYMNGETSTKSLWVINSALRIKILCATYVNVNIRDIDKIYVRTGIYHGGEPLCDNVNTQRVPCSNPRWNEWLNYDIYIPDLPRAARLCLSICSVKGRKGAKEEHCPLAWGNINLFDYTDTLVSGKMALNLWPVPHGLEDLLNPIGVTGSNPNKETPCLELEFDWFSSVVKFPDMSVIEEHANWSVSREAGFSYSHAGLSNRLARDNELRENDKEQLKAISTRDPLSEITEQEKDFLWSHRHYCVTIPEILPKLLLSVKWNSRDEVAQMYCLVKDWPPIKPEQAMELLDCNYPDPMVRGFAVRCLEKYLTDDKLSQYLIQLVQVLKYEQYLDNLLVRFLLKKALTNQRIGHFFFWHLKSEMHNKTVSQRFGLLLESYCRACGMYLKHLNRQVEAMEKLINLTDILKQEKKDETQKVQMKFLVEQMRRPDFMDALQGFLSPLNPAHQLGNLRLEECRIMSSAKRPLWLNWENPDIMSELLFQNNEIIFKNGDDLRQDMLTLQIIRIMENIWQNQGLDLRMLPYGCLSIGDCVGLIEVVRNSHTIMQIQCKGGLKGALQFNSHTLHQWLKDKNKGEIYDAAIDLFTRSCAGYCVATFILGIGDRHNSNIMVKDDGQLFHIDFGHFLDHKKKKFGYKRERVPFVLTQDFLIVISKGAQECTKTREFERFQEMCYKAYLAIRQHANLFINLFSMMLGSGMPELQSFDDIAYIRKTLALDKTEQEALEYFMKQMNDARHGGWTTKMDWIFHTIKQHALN
# Sequence (P27986 whole entry partner): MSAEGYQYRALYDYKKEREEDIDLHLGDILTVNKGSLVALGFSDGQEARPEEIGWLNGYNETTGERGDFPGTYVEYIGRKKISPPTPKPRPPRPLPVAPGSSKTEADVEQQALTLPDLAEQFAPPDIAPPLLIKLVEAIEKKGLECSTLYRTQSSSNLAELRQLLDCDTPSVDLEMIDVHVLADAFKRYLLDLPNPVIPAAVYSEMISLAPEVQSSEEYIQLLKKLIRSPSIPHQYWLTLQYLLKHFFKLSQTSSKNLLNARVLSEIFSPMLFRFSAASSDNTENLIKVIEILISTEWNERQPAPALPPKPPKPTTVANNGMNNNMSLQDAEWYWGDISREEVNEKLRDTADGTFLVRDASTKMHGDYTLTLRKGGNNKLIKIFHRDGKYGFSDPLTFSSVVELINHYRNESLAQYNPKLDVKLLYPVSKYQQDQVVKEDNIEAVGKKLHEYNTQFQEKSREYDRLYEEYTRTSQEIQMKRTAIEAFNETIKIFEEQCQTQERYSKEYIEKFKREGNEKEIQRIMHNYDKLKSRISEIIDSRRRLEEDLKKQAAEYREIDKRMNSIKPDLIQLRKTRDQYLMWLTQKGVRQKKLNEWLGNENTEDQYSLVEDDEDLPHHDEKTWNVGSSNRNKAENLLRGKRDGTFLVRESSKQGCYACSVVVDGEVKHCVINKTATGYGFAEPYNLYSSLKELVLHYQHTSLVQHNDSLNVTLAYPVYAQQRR
# assay method text: PI3Kα cellular assay: T47D pAKT S473 HTRF
# setup conditions: T47D cells (H1047R), serum starved, 1 hr compound, 20 ng/ml EGF 10 min
pIC50: −log10 of the molar value.

Per the records, this compound ( `Cc1cc([C@@H](C)Nc2ccccc2C(=O)O)c2cc(OC3CCOCC3)ncc2c1` ) has pIC50 equal to > 6.12

Per the records, this compound ( `Cc1cc([C@@H](C)Nc2ccccc2C(=O)O)c2cc(-c3ccc(F)cc3)n(C)c(=O)c2c1` ) has pIC50 equal to > 6.12

Per the records, this compound ( `Cc1cc([C@@H](C)Nc2ccccc2C(=O)O)c2nc(-c3cccnc3)n(C)c(=O)c2c1` ) has pIC50 equal to > 6.12

Per the records, this compound ( Cc1cc(C(C)Nc2ccccc2C(=O)O)c2nc(N3Cc4ccccc4C3)nc(C3CC3O)c2c1 (centres unmarked) ) has pIC50 equal to 5.70 to 6.12

Per the records, this compound ( Cc1cc(C(C)Nc2ccccc2C(=O)O)c2nc(-c3cc(C)c4oc(=O)[nH]c4c3)ncc2c1 (centres unmarked) ) has pIC50 equal to 5.70 to 6.12

Per the records, this compound ( Cc1cc(C(C)Nc2ccccc2C(=O)O)c2nc(N3Cc4ccccc4C3)ccc2c1 (centres unmarked) ) has pIC50 equal to 5.70 to 6.12

Further cases:
Per the records, this compound ( `Cc1cc([C@@H](C)Nc2ccccc2C(=O)O)c2nc(-c3ccnc(C4CC4)c3)n(C)c(=O)c2c1` ) has pIC50 equal to > 6.12

Per the records, this compound ( Cc1cc(C(C)Nc2ccccc2C(=O)O)c2cc(OC3CCOCC3)ncc2c1 (centres unmarked) ) has pIC50 equal to > 6.12
